Target: system Xc^− (Homo sapiens, UniProt Q9UPY5)
Sequence (Q9UPY5 1-501): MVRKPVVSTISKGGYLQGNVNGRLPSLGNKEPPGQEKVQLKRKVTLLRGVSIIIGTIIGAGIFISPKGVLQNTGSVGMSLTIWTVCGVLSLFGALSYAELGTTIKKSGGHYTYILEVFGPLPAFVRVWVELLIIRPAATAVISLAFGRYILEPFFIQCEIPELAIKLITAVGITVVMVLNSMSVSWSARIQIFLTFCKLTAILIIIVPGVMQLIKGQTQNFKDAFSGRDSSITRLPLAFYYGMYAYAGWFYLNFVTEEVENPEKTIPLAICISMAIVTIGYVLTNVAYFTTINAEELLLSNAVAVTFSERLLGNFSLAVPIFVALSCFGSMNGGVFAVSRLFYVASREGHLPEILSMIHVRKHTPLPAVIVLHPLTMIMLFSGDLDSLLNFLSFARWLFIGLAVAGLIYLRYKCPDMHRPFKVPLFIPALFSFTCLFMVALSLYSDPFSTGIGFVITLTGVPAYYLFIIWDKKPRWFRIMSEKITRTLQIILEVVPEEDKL
Sequence (P08195 1-529 partner): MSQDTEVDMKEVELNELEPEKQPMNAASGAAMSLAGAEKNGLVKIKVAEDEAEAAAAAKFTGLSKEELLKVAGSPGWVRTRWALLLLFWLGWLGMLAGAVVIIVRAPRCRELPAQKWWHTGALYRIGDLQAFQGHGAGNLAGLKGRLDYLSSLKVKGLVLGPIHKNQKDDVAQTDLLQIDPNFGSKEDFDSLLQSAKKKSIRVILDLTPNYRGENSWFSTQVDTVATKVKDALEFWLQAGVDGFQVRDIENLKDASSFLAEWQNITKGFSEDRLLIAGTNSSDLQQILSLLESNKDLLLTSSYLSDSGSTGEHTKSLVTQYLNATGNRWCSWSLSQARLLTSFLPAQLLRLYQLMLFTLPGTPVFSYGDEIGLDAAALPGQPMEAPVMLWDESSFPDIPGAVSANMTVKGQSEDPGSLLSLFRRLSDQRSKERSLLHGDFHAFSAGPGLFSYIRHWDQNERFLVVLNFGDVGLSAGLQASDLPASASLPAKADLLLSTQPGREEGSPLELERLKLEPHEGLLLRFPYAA
Assay: [^14C]L-Cystine uptake assay
Format: cell-based
Set-up: endogenous in cells; host or cells: H4 cells
Conditions: H4 cells, sodium-free HEPES buffer, 0.5 μM L-[14C]Cystine and 4.5 μM L-Cystine, 1 hour at 37° C.; read-out: pIC50 [^14C] L-Cystine uptake assay (converted)
Quick reference: IC50 of the listed items.

[
  {
    "COMPOUND": "CC1C(=O)N(CC(=O)Nc2ccc(Cl)c(F)c2)c2cc(C#N)ccc2-c2cccnc21 (stereo not shown)",
    "IC50": "39.8 to 100 nM"
  }
]

[ask] IC50 for Cc1cc2c(cn1)-c1cc(F)cnc1C(C)C(=O)N2CC(=O)Nc1ccc(Cl)c(F)c1 (single isomer, unassigned) ?
[reply] < 15.8 nM

[ask] # input compound: CO[C@H]1C(=O)N(CC(=O)Nc2ccc(C(F)(F)F)cc2)c2cc(C)nc(Cl)c2-c2cccnc21 (single isomer, unassigned) ; wanted: its IC50
[reply] < 15.8 nM

[ask] Entry under review: CC1C(=O)N(CC(=O)Nc2ccc(C(F)(F)F)nc2)c2cc(Cl)cc(F)c2-c2cccnc21 (single isomer, unassigned) . Reported IC50?
[reply] 15.8 to 39.8 nM

[ask] Report IC50 for `O=C(CN1C(=O)Cc2ccccc2-c2cnc(CO)cc21)Nc1ccc(C(F)(F)F)cc1` please.
[reply] 100 to 501 nM

[ask] Tell me the measured IC50 of Cc1cc2c(n(C)c1=O)-c1ccc(F)cc1C(C)C(=O)N2CC(=O)Nc1ccc(Cl)c(F)c1 (stereo not shown) , please.
[reply] < 15.8 nM

[ask] Request the reported IC50 associated with `Cc1cc2c(c(F)n1)-c1cccnc1[C@@H](C)C(=O)N2CC(=O)Nc1ccc(C(C)(F)F)cc1`
[reply] < 15.8 nM

* * *

target: system Xc^− (Homo sapiens, UniProt Q9UPY5); assay: Cystine-induced glutamate release assay; assay type: cell-based; parameters: endogenous in cells; host or cells: H4 cells; settings: H4 cells, sodium-free HEPES buffer, 50 μM L-Cystine, 2 hours, Amplex Red glutamate readout; read-out: pIC50 Cystine-induced glutamate release assay (converted)
METRIC: IC50

[ask] If you can, please state the reported IC50 value of `Cc1cc2c(c(F)n1)-c1cc(F)cnc1CC(=O)N2CC(=O)Nc1ccc(C(F)(F)F)cc1` .
[reply] 100 to 501 nM

[ask] Would you mind telling me what IC50 value was observed for Cc1cc2c(c(Cl)n1)-c1cccnc1C(C)C(=O)N2CC(=O)Nc1ccc(Br)cc1F (single isomer, unassigned) ?
[reply] < 15.8 nM

[ask] Requested read-out: IC50. Entry: Cc1ccc(NC(=O)CN2C(=O)C(C)c3ccccc3-c3c2cc(C)c(=O)n3C)cc1F (centres unmarked)
[reply] 15.8 to 39.8 nM

[ask] What does the data say about its IC50? Entry: `O=C(CN1C(=O)Cc2cc(F)ccc2-c2c1cc(N1CC(F)(F)C1)nc2F)Nc1ccc(C(F)F)cc1`
[reply] 39.8 to 100 nM

[ask] // returns reported IC50 for input Cc1cc2c(c(=O)n1C)-c1ccc(F)cc1C(C)C(=O)N2CC(=O)Nc1ccc(C(F)F)cc1 (centres unmarked)
[reply] < 15.8 nM

[ask] Look up IC50 for this compound: CC1C(=O)N(CC(=O)Nc2ccc(Cl)c(F)c2)c2cc(C#N)ccc2-c2cccnc21 (centres unmarked)
[reply] < 15.8 nM

[ask] I'd like to know its IC50. The compound in question is COc1nccc2c1-c1cccnc1C(C)C(=O)N2CC(=O)Nc1ccc(Cl)c(F)c1 (single isomer, unassigned)
[reply] < 15.8 nM

[ask] Quick one: IC50 of `Cc1cc2c(c(F)n1)-c1cncc(F)c1CC(=O)N2CC(=O)Nc1ccc(C(F)(F)F)cc1` ?
[reply] 100 to 501 nM

* * *

target: system Xc^− (Homo sapiens); experiment: [^14C]L-Cystine uptake assay; assay type: cell-based; design: endogenous in cells; host or cells: H4 cells; conditions: H4 cells, sodium-free HEPES buffer, 0.5 μM L-[14C]Cystine and 4.5 μM L-Cystine, 1 hour at 37° C.; read-out: pIC50 [^14C] L-Cystine uptake assay (converted)
Each entry below lists one item and its recorded IC50 value.

Known results for compounds:
[
  {
    "COMPOUND": "Cc1cc2c(c(C#N)n1)-c1cc(F)ccc1CC(=O)N2CC(=O)Nc1ccc(C(F)(F)F)cc1",
    "METRIC": "IC50",
    "ASSAY_VALUE": "< 15.8 nM"
  },
  {
    "COMPOUND": "Cc1cc2c(c(F)n1)-c1cccnc1[C@@H](C)C(=O)N2CC(=O)Nc1ccc(C(C)C)c(F)c1",
    "METRIC": "IC50",
    "ASSAY_VALUE": "15.8 to 39.8 nM"
  },
  {
    "COMPOUND": "COc1cc2c(c(F)n1)-c1ncccc1C(C)C(=O)N2CC(=O)Nc1ccc(Cl)c(F)c1 (single isomer, unassigned)",
    "METRIC": "IC50",
    "ASSAY_VALUE": "15.8 to 39.8 nM"
  }
]

[ask] Any idea what its IC50 is? The compound is `Cc1cc2c(c(F)n1)-c1cccnc1[C@@H](C)C(=O)N2CC(=O)Nc1ccc(C2CC2)cc1`
[reply] < 15.8 nM

[ask] Could you tell me which IC50 is on file for Cc1cc2c(n(C)c1=O)-c1ccnn1C(C)C(=O)N2CC(=O)Nc1ccc(Cl)c(F)c1 (stereo not shown) ?
[reply] 39.8 to 100 nM

[ask] Please give the measured IC50 for this compound: CC1C(=O)N(CC(=O)Nc2ccc(C(F)F)cc2)c2cc(C3(F)CC3)oc(=O)c2-c2cccnc21 (single isomer, unassigned)
[reply] 15.8 to 39.8 nM

[ask] Please look up its IC50: O=C(CN1C(=O)C(CO)c2ncccc2-c2c(F)cc(Cl)cc21)Nc1ccc(Cl)c(F)c1 (single isomer, unassigned)
[reply] 15.8 to 39.8 nM

* * *

Target: system Xc^− (Homo sapiens, UniProt Q9UPY5)
Sequence (Q9UPY5 1-501): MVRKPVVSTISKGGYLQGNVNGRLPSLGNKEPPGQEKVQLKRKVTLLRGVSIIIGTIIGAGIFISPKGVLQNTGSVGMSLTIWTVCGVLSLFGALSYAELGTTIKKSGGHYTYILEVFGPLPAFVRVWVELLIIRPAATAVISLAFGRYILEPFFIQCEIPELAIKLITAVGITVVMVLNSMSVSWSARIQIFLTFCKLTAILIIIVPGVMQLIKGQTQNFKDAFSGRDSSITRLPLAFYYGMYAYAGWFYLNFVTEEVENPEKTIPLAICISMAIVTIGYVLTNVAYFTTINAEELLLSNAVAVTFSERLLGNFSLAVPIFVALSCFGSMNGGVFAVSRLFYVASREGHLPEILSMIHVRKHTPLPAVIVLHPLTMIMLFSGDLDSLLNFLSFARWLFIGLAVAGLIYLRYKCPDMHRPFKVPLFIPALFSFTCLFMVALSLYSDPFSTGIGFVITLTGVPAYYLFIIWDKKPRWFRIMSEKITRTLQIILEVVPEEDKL
Sequence (P08195 1-529 partner): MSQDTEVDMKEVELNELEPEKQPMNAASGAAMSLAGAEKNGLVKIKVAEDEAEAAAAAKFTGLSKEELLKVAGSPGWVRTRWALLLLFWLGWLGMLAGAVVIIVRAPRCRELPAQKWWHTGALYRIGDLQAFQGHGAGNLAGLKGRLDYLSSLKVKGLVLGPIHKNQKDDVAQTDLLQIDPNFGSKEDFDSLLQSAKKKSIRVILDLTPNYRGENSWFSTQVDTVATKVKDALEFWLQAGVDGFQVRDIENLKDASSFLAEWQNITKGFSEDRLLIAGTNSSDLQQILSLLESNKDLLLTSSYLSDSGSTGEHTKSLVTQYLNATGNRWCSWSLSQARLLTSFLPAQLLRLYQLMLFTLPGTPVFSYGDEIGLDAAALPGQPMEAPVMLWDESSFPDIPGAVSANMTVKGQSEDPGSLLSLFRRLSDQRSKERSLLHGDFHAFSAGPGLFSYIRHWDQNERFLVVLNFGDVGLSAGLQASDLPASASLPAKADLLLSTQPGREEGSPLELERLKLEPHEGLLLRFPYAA
Assay: [^14C]L-Cystine uptake assay
Format: cell-based
Parameters: endogenous in cells; host or cells: H4 cells
Details: H4 cells, sodium-free HEPES buffer, 0.5 μM L-[14C]Cystine and 4.5 μM L-Cystine, 1 hour at 37° C.; read-out: pIC50 [^14C] L-Cystine uptake assay (converted)
METRIC: IC50

[
  {
    "COMPOUND": "CCn1c(C)cc2c(c1=O)-c1cccnc1[C@@H](C)C(=O)N2CC(=O)Nc1ccc(Cl)c(F)c1 (single isomer, unassigned)",
    "MEASUREMENT_TARGET": "system Xc^− (Homo sapiens, UniProt Q9UPY5)",
    "IC50": "< 15.8 nM"
  },
  {
    "COMPOUND": "CCc1nc(C)cc2c1-c1ccccc1CC(=O)N2CC(=O)Nc1ccc(C(F)(F)F)cc1",
    "MEASUREMENT_TARGET": "system Xc^− (Homo sapiens, UniProt Q9UPY5)",
    "IC50": "15.8 to 39.8 nM"
  },
  {
    "COMPOUND": "Cc1cc2c(c(F)n1)-c1cc(F)cnc1[C@H](C)C(=O)N2CC(=O)Nc1ccc(Cl)c(F)c1 (single isomer, unassigned)",
    "MEASUREMENT_TARGET": "system Xc^− (Homo sapiens, UniProt Q9UPY5)",
    "IC50": "< 15.8 nM"
  },
  {
    "COMPOUND": "CC1C(=O)N(CC(=O)Nc2ccc(Cl)c(F)c2)c2cc(N3CC4(CC4)C3)nc(F)c2-c2cccnc21 (single isomer, unassigned)",
    "MEASUREMENT_TARGET": "system Xc^− (Homo sapiens, UniProt Q9UPY5)",
    "IC50": "39.8 to 100 nM"
  },
  {
    "COMPOUND": "Cc1cc2c(c(Cl)n1)-c1cccnc1C(F)C(=O)N2CC(=O)Nc1ccc(C(F)F)cc1 (single isomer, unassigned)",
    "MEASUREMENT_TARGET": "system Xc^− (Homo sapiens, UniProt Q9UPY5)",
    "IC50": "15.8 to 39.8 nM"
  },
  {
    "COMPOUND": "O=C(CN1C(=O)Cc2ccncc2-c2cnc(Cl)cc21)Nc1ccc(C(F)(F)F)cc1",
    "MEASUREMENT_TARGET": "system Xc^− (Homo sapiens, UniProt Q9UPY5)",
    "IC50": "100 to 501 nM"
  },
  {
    "COMPOUND": "COc1ccc2c(c1)N(CC(=O)Nc1ccc(Cl)c(F)c1)C(=O)C(C)c1ncccc1-2 (stereo not drawn)",
    "MEASUREMENT_TARGET": "system Xc^− (Homo sapiens, UniProt Q9UPY5)",
    "IC50": "39.8 to 100 nM"
  },
  {
    "COMPOUND": "CC1C(=O)N(CC(=O)Nc2ccc(Cl)c(F)c2)c2ccnc(OC(F)F)c2-c2cccnc21 (stereo not drawn)",
    "MEASUREMENT_TARGET": "system Xc^− (Homo sapiens, UniProt Q9UPY5)",
    "IC50": "39.8 to 100 nM"
  }
]

[ask] Sample Cc1cc2c(n(C)c1=O)-c1ccccc1C(C)C(=O)N2CC(=O)Nc1ccc(C(F)(F)F)cc1 (single isomer, unassigned) — what was its IC50?
[reply] < 15.8 nM

[ask] Form field: reported IC50 of Cc1cc2c(c(F)n1)-c1cccnc1C(C)C(=O)N2CC(=O)Nc1ccc(F)c(F)c1 (stereo not drawn)
[reply] 39.8 to 100 nM

[ask] IC50 for CC1C(=O)N(CC(=O)Nc2ccc(Cl)c(F)c2)c2cc(N3[C@@H]4CCC[C@H]3C4)nc(F)c2-c2cccnc21 (single isomer, unassigned) ?
[reply] 39.8 to 100 nM
